Source listed as ChEMBL document CHEMBL4513216.

cytotoxicity at 10 µM values by entry
Test: Toxicity liver stage against HepG2, at 10uM
Format: cell-based
Parameters: test concentration 10 uM, cell line HepG2-A16-CD81EGFP
Conditions: human, HepG2-A16-CD81EGFP cells; read-out: INHIBITION
# unit: % | format: bare number

Here are 2 compounds together with their reported answers.
| compound | measurement |
| --- | --- |
| CS(=O)(=O)NCc1nnc2n1CCN(Cc1ccc(F)cc1)C2 | -72.7 |
| COCCOc1ccccc1C(=O)N1CCCC(c2cc(C)[nH]n2)C1 (stereo unspecified) | -22.6 |

Attention now turns to another entry.
Problem: Give the value of cytotoxicity at 10 µM reported for the following: "CC(C)CNC(=O)CNc1c(NCc2ccco2)c(=O)c1=O"
Result: -0.817

###

Test: Toxicity liver stage against HepG2, at 10uM
Type: cell-based
Parameters: test concentration 10 uM, cell line HepG2-A16-CD81EGFP
Conditions: human, HepG2-A16-CD81EGFP cells; read-out: INHIBITION
measurement kind: cytotoxicity at 10 µM (%)
Kindly answer with a numeric value in %, unit omitted.

| molecule | cytotoxicity at 10 µM [%] |
| --- | --- |
| O=S(=O)(c1cccnc1)N1CCCC1COc1ccccc1 (stereo unspecified) | -9.32 |
| Cn1nnc2c(N3CC(C(=O)NCc4cccs4)C3)ncnc21 | 4.29 |
| CCn1c(N)nc2cc(C(=O)N3CCCN(C)CC3)cnc21 | -2.43 |
| O=C(c1cc(-c2ccco2)cs1)N1CCCC1 | 11 |

Problem: Consider the molecule "COc1cccc(C(=O)N2C[C@@H]3CC[C@H]2CN(Cc2cscn2)C3)c1" and give its recorded cytotoxicity at 10 µM.
Result: 1.5

Problem: Please look at this molecule and report its cytotoxicity at 10 µM: "COC(=O)Cc1cccc(NC(=O)Cc2cc(C)[nH]n2)c1"
Result: -2.45

###

# cytotoxicity at 10 µM per record follows
Experiment: Toxicity liver stage against HepG2, at 10uM
Assay type: cell-based
Parameters: test concentration 10 uM, cell line HepG2-A16-CD81EGFP
Conditions: human, HepG2-A16-CD81EGFP cells; read-out: INHIBITION
The reply should be a number in %, with the unit left off.

Problem: Provide only the value of recorded cytotoxicity at 10 µM for "COc1ncc(C(=O)NCc2ccccc2)cn1"
Result: -3.99

Problem: Output cytotoxicity at 10 µM of "Cc1nc(O)cc([C@@H]2CN(S(=O)(=O)N(C)C)C[C@H]2c2ccccc2F)n1"
Result: 5.8

Problem: Assign cytotoxicity at 10 µM to the following record: "Cc1cc(=O)n(C)cc1NC(=O)CC1CCC1"
Result: -9.64

Problem: Tell us which cytotoxicity at 10 µM value is on record for Cc1cc(CN2CCN(C(=O)C(C(C)C)n3cncn3)CC2)no1 (stereo unspecified)
Result: -9.88

Problem: Report cytotoxicity at 10 µM for COC(=O)NCC(=O)NC1(C)CCc2ccccc2C1 (stereo unspecified)
Result: 4.29

Problem: Identify measured cytotoxicity at 10 µM corresponding to CCc1nccn1CC1CCCN1S(=O)(=O)N1CCCOCC1 (stereo unspecified)
Result: -11.5

###

Test: Toxicity liver stage against HepG2, at 10uM
Format: cell-based
Parameters: test concentration 10 uM, cell line HepG2-A16-CD81EGFP
Details: human, HepG2-A16-CD81EGFP cells; read-out: INHIBITION
measurement kind: cytotoxicity at 10 µM (%)
Numeric answer only, unit % assumed.

Examples with answers:
| compound | measurement kind | measurement |
| --- | --- | --- |
| CCn1cnnc1C1CCN(C(=O)c2cccc(-n3cccc3)c2)CC1 | cytotoxicity at 10 µM | 4.56 |
| O=C(NCC(O)c1ccc(F)c(F)c1)c1ccccc1F (stereo unspecified) | cytotoxicity at 10 µM | -3 |
| O=C(Cc1ccc(F)c(F)c1)NC1COc2ccccc2C1=O (stereo unspecified) | cytotoxicity at 10 µM | 4.61 |

Problem: Recall and state the measured cytotoxicity at 10 µM for "CC(C)CN1C(=O)CO[C@@H]2CN(C(=O)[C@H]3CCCO3)C[C@H]21" .
Result: -5.12

Problem: Indicate the recorded cytotoxicity at 10 µM value for this compound: Cc1ccc(CN2CCC3(CC2)CC(CC(=O)NC(C)C)CO3)s1 (stereo unspecified)
Result: -1.72

###

Experiment: Toxicity liver stage against HepG2, at 10uM
Type: cell-based
Parameters: test concentration 10 uM, cell line HepG2-A16-CD81EGFP
Conditions: human, HepG2-A16-CD81EGFP cells; read-out: INHIBITION
measurement kind: cytotoxicity at 10 µM (%)
Please give a number only; it is taken to be in %.

Here's what some known entries look like.
| compound | measurement |
| --- | --- |
| O=C(CC1CC1)N1CCc2ncc(CN3CCOCC3)n2CC1 | -80.6 |
| CCc1nc(C2CCCN2CCCSC)no1 (stereo unspecified) | -6.57 |
| O[C@H]1[C@H](NCCc2ccccn2)c2ccccc2C12CCNCC2 | 13.7 |
| CCOCC(=O)N1CC[C@@H]2O[C@@H](C)C[C@H]2C1 | -69.2 |
| Cc1cccc(CN2CCN(Cc3ccccc3)CC(O)C2)n1 (stereo unspecified) | -8.42 |

Now turn to the next compound.
Problem: Please supply the value of reported cytotoxicity at 10 µM for the item "O=C1CN(Cc2occc2C(=O)NCCc2ccc(F)cc2)CCN1"
Result: -10.2

###

Assay: Toxicity liver stage against HepG2, at 10uM
Format: cell-based
Parameters: test concentration 10 uM, cell line HepG2-A16-CD81EGFP
Settings: human, HepG2-A16-CD81EGFP cells; read-out: INHIBITION
Examples of compounds with documented cytotoxicity at 10 µM follow.
The figure you give is taken to be in %; do not add the unit.

Past entries and their recorded results:
| compound | uom | cytotoxicity at 10 µM |
| --- | --- | --- |
| COc1ccccc1OCCN1CCCC(c2noc(C3CC3)n2)C1 (configuration not stated) | % | 1.26 |
| Cc1cccc(CN2CCN(c3ncnc4[nH]cnc34)CC2CCO)n1 (configuration not stated) | % | -3.09 |
| Cn1ccnc1SC1CCc2ccccc2NC1=O (configuration not stated) | % | -8.75 |

Problem: Look up and report measured cytotoxicity at 10 µM for this entry: "O=C(NCCO)Nc1ccc(Br)c(F)c1"
Result: 1.92

Problem: Read the entry Cn1cc(CN2CCCC(c3nccnc3-c3cccc(F)c3)C2)cn1 (configuration not stated) and write its reported cytotoxicity at 10 µM.
Result: 0.954

Problem: Specify cytotoxicity at 10 µM for "O=C(N[C@@H]1CN(Cc2ccc3cc[nH]c3c2)C[C@H]1O)c1cnccn1" and stop.
Result: -8.22

###

Test: Toxicity liver stage against HepG2, at 10uM
Type: cell-based
Set-up: test concentration 10 uM, cell line HepG2-A16-CD81EGFP
Conditions: human, HepG2-A16-CD81EGFP cells; read-out: INHIBITION
measurement kind: cytotoxicity at 10 µM (%)
Give the quantity in %, number only.

| compound | measurement kind | measurement |
| --- | --- | --- |
| CCC(=O)N1CC[C@H]2[C@H](C[C@@H](CN3CCCC3)N2c2nccs2)C1 | cytotoxicity at 10 µM | 10.2 |
| Cc1ccsc1C(=O)N1CCCc2c(c(=O)n(C)n2C)C1 | cytotoxicity at 10 µM | 6.95 |
| CN1CCCC2(CCN(c3cccc(C#N)n3)C2)C1=O (stereo not drawn) | cytotoxicity at 10 µM | 3.61 |
| COc1cc(N2CCC3(CC2)CN(C)C(=O)CO3)ncn1 | cytotoxicity at 10 µM | 6.5 |
| NC(=O)Nc1cccc(F)c1C(=O)NC1CCCC1 | cytotoxicity at 10 µM | -8.64 |

Problem: For the compound c1csc(-c2noc(CNC3CCc4ncnn4C3)n2)c1 (stereo not drawn) , report cytotoxicity at 10 µM.
Result: -9.3

Problem: Tell me its cytotoxicity at 10 µM given "O=c1c(Cc2ccc(Cl)cc2Cl)c(O)ccn1CC1CC1" as the entry.
Result: 13.6

Problem: # return recorded cytotoxicity at 10 µM for input CCOC(=O)CC1CCCCN1C(=O)c1cc(C)on1 (stereo not drawn)
Result: 5.53

Problem: Supply cytotoxicity at 10 µM value. Item: "N#Cc1ccc(OCCNc2cccc(C(=O)N3CCOCC3)c2)cc1"
Result: -2.96

Problem: Respond only with cytotoxicity at 10 µM recorded for CCc1nnsc1C(=O)N1CCCC(n2ccnc2C(C)C)C1 (stereo not drawn)
Result: -16

Problem: Tell us which cytotoxicity at 10 µM value is on record for "N#Cc1cccc(S(=O)(=O)Nc2c(F)cccc2N2CCCC2)c1"
Result: 2.62

Problem: Tell me measured cytotoxicity at 10 µM for CCc1csc(CNC(=O)C(CC)n2cccn2)n1 (stereo not drawn) please.
Result: -0.651

Problem: Respond only with cytotoxicity at 10 µM recorded for "Cn1cc(CN2CCn3cnc(COCC4CC4)c3C2)cn1"
Result: 3.71
